Experimental Target: hFSH-R (Homo sapiens, UniProt P23945)
Construct: expressed in transfected cells; host or cells: CHO-3D2 cells (CHO-K1 parental line)
Sequence (P23945 18-695): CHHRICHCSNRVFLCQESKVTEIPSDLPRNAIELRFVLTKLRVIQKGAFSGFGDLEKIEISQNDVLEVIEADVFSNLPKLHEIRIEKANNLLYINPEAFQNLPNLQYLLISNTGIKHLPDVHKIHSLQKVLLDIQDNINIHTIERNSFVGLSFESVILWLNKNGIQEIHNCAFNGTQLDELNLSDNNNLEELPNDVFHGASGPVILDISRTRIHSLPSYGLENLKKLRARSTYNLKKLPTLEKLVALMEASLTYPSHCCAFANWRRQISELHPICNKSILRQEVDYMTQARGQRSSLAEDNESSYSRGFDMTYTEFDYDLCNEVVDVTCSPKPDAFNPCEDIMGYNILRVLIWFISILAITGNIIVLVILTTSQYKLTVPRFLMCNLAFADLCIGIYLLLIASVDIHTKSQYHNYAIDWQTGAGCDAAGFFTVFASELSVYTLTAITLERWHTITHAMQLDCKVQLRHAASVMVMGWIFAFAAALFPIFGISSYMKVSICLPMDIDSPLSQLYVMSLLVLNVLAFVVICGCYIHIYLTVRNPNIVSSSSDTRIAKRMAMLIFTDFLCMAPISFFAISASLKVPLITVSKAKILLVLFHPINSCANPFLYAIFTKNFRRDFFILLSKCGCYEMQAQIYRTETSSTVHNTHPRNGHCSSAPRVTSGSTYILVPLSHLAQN
Procedure Text: cAMP accumulation (RIA) in CHO-3D2 cells (hFSH-R), hFSH-induced
Type: cell-based
Protocol: In Vitro Bio-Assay, Selectivity and Dependency of Agonists and Antagonists to the FSH Receptor Compound Vehicle: Stock compounds were solubilized in 100% DMSO (Sigma-Aldrich Chemical Co., St. Louis, Mo.) at a concentration of 30 mM. […] All test compounds were evaluated in a dose-response paradigm ranging from 0.01 to 30 μM. Controls and test compounds were evaluated in quadruplicate in a 96-well format. […]
Each record here notes measured log10(IC50).
Experimental Readout: log10(IC50) (log10 of the value in nM)

{"Molecule": "COc1cc(C(=O)N2Cc3ccc(C(=O)NCCc4ccc(O)cc4)n3Cc3ccccc32)ccc1-c1ccccc1C [Example 55]", "Experimental Target": "hFSH-R (Homo sapiens, UniProt P23945)", "log10(IC50)": 4.11}
{"Molecule": "Cc1ccccc1-c1ccc(C(=O)N2Cc3ccc(C(=O)NCc4ccccc4)n3Cc3ccccc32)cc1C [Example 15]", "Experimental Target": "hFSH-R (Homo sapiens, UniProt P23945)", "log10(IC50)": 2.60}
{"Molecule": "COc1cccc(CNC(=O)c2ccc3n2Cc2ccccc2N(C(=O)c2ccc(-c4ccccc4C)c(C)c2)C3)c1 [Example 7]", "Experimental Target": "hFSH-R (Homo sapiens, UniProt P23945)", "log10(IC50)": 2.48}
{"Molecule": "Cc1ccccc1-c1ccc(C(=O)N2Cc3ccc(C(=O)NCc4ccc5c(c4)OCO5)n3Cc3ccccc32)cc1C [Example 23]", "Experimental Target": "hFSH-R (Homo sapiens, UniProt P23945)", "log10(IC50)": 3.89}
{"Molecule": "Cc1ccccc1CNC(=O)c1ccc2n1Cc1ccccc1N(C(=O)c1ccc(-c3ccccc3C)c(C)c1)C2 [Example 17]", "Experimental Target": "hFSH-R (Homo sapiens, UniProt P23945)", "log10(IC50)": 3.41}
{"Molecule": "COc1cc(C(=O)N2Cc3ccc(C(=O)NCc4cccc(C)c4)n3Cc3ccccc32)ccc1-c1ccccc1C [Example 37]", "Experimental Target": "hFSH-R (Homo sapiens, UniProt P23945)", "log10(IC50)": 2.85}
{"Molecule": "COc1cc(C(=O)N2Cc3ccc(C(=O)NCc4ccc(C)cc4)n3Cc3ccccc32)ccc1-c1ccccc1C [Example 38]", "Experimental Target": "hFSH-R (Homo sapiens, UniProt P23945)", "log10(IC50)": 2.70}
